Data provenance is ChEMBL document CHEMBL1127461.

Attribute: inhibition at 500 ug/mL
Test: In Vitro cytotoxicity […] at 500 ug/mL concentration
Assay type: organism-based
Output spec: scalar in %, unitless text.

{"columns": ["MOLECULE", "READOUT UNIT", "inhibition at 500 ug/mL"],
 "data": [
  ["Nc1nc(O)c([N+](=O)[O-])c(NCCCCO)n1", "%", 100],
  ["Nc1nc(Cl)cc(NCCCCO)n1", "%", 50],
  ["OCCCCNc1nc(O)nc(O)c1I", "%", 100],
  ["Nc1nc(O)c(N)c(NCCOCP(=O)(O)O)n1", "%", 75]
]}

Give the measured inhibition at 500 ug/mL of Nc1nc(O)cc(NCCCCO)n1 .
0

Please answer likewise for CCc1cn([C@H]2C[C@H](O)[C@@H](CO)O2)c(=O)[nH]c1=O [EDOXUDINE]
0

Then this molecule: Nc1nc2c(ncn2COCCO)c(=O)[nH]1 [ACYCLOVIR]
0

Input O=[N+]([O-])c1c(O)nc(O)nc1NCCCCO
0

Check OCCCCNc1cc(O)nc(O)n1 too.
25

Now this one: Nc1nc(O)c([N+](=O)[O-])c(NCCOCP(=O)(O)O)n1
0
